Endpoint: pIC50. System: Epidermal growth factor receptor (Homo sapiens, UniProt P00533). Items follow.
Sequence (P00533 whole entry): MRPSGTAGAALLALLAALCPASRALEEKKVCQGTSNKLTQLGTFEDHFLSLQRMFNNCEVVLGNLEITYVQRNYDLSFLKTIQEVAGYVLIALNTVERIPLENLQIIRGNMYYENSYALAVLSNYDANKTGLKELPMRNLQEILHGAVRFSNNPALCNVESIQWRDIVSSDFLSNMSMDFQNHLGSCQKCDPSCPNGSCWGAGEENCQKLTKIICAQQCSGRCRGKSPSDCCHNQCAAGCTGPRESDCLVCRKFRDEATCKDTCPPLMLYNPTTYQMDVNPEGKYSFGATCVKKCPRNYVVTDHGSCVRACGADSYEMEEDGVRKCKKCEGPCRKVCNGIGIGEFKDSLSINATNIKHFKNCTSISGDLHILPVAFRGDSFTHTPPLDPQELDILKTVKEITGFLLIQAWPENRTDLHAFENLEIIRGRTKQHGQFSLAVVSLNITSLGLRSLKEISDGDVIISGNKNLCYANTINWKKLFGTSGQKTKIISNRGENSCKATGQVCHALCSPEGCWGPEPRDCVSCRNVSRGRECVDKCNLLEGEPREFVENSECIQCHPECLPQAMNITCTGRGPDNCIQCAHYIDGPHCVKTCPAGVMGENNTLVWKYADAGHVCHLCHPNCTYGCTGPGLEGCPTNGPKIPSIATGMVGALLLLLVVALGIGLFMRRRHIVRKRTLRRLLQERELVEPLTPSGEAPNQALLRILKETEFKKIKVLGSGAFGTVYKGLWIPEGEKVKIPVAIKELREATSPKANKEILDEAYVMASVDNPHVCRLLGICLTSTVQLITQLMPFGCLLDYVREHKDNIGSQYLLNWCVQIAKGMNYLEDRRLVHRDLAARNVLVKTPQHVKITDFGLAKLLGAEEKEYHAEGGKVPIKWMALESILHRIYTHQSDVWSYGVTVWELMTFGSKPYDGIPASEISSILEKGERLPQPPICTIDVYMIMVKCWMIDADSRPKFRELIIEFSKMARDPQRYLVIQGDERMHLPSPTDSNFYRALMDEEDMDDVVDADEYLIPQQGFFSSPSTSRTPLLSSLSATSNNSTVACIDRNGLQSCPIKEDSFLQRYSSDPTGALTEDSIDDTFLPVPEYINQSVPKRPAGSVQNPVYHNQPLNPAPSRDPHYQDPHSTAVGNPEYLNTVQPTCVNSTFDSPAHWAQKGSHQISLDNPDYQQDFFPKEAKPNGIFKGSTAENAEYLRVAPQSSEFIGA
pIC50: −log10 of the molar value.
reported.property: pIC50

Take a look at these entries with their results.
[[record]]
structure_as_smiles = "CN(/N=N/c1ccc2ncnc(Nc3cccc(Cl)c3)c2c1)C(=O)Oc1ccc([N+](=O)[O-])cc1"
recorded_number = 6.11

[[record]]
structure_as_smiles = "C=COC(=O)N(CCN(C)C)/N=N/c1ccc2ncnc(Nc3cccc(Cl)c3)c2c1"
recorded_number = 6.74


(1) CC(=O)OCN(C)/N=N/c1ccc2ncnc(Nc3cccc(Cl)c3)c2c1
(2) CC(=O)OCOC(=O)N(C)/N=N/c1ccc2ncnc(Nc3cccc(Cl)c3)c2c1
Please state the entry with greater pIC50 among 1 and 2 . Kindly state the label of the option you pick. 1
(1: 6.62, 2: 6.20)

====

assay: Stability assessed as degradation to FD105 at 37 degC by fluorescence; format: physicochemical
reported.property: Stability

[[record]]
structure_as_smiles = "C=COC(=O)N(C)/N=N/c1ccc2ncnc(Nc3cccc(Cl)c3)c2c1"
reported_property = "Stability"
result = "Stable"

[[record]]
structure_as_smiles = "CN(/N=N/c1ccc2ncnc(Nc3cccc(Cl)c3)c2c1)C(=O)Oc1ccc([N+](=O)[O-])cc1"
reported_property = "Stability"
result = "Stable"

[[record]]
structure_as_smiles = "CC(=O)OCOC(=O)N(C)/N=N/c1ccc2ncnc(Nc3cccc(Cl)c3)c2c1"
reported_property = "Stability"
result = "Stable"


====

test system: MDA-MB-468; assay: Induction of DNA damage in human MDA-MB-468 cells assessed as tail movements by comet assay; type: functional, cell-based
The source made the active and inactive calls. The rule behind the calls is not given here.
I would appreciate it if you answered using one of these outcomes: active, inactive

Solved entries:
[[record]]
structure_as_smiles = "C=COC(=O)N(CCN(C)C)/N=N/c1ccc2ncnc(Nc3cccc(Cl)c3)c2c1"
assigned_label = "active"

[[record]]
structure_as_smiles = "CN(/N=N/c1ccc2ncnc(Nc3cccc(Cl)c3)c2c1)C(=O)OCCl"
assigned_label = "active"

[[record]]
structure_as_smiles = "CC(=O)OCOC(=O)N(C)/N=N/c1ccc2ncnc(Nc3cccc(Cl)c3)c2c1"
assigned_label = "active"


# outcome recorded in this test, key = "CN(/N=N/c1ccc2ncnc(Nc3cccc(Cl)c3)c2c1)C(=O)Oc1ccc([N+](=O)[O-])cc1" active

# outcome recorded in this test, key = "C=COC(=O)N(C)/N=N/c1ccc2ncnc(Nc3cccc(Cl)c3)c2c1" inactive
